The following compounds are shown together with reported inhibition values.
measurement_target: AP-2 complex subunit beta (Homo sapiens)
assay_name: inhibitors of arrestin peptide binding to AP2, pilot screen, biochemical, validation set, GST-AP2 beads, flow cytometry (AID 504541);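 further: AP2 carries R879A mutation and is captured from E. coli lysate; bead-bound FITC arrestin peptide fluorescence measuring arrestin peptide binding to AP2; 0% = DMSO wells and 100% = excess unlabeled arrestin peptide control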
measurement_parameters: FITC arrestin peptide, at 10 µM, stronger effect = higher value, AP2 beta2 appendage fragment, R879A mutant
measured_metric: inhibition (%)

{"columns": ["compound", "experimental_result"],
 "data": [
  ["C#CCN1C(=O)C(O)(CC(=O)c2ccc(OC)c(OC)c2)c2ccccc21 (stereo unspecified)", -2.48],
  ["O=C1OC(=O)C2C1[C@@H]1CC[C@H]2O1 (stereo partly specified)", -1.78],
  ["Oc1ccc(Cl)cc1Cc1cc(Cl)ccc1O", 24.9],
  ["O=C1CCCN1CCCn1cnc2c([nH]c3ccc(F)cc32)c1=O", -10.6],
  ["COc1ccc2cc(CCC(C)=O)ccc2c1", -2.69],
  ["Cn1c(=O)[nH]c(=O)c2c1nc(Br)n2CCCO", 7.12],
  ["CCOc1ccc(CCn2c(-c3ccco3)nc3ccccc3c2=O)cc1OCC", 3.57],
  ["CC(=O)O[C@]1(C(C)=O)CC[C@H]2[C@@H]3C=C(Cl)C4=CC(=O)CC[C@]4(C)[C@H]3CC[C@@]21C", -12.8],
  ["C[C@]12CCC(=O)C[C@@H]1CC[C@@H]1[C@@H]2CC[C@]2(C)C=CC[C@@H]12", 2.65],
  ["CNCCCC12CCC(c3ccccc31)c1ccccc12", 3.24],
  ["CCCCOc1ccc(OCCCN2CCOCC2)cc1", -2.38]
]}

====

assay_name: inhibitors of CD8+ T cell-vesicle binding, pilot screen, LFA-1/ICAM-1 modulator project, MLPCN validation set, flow cytometry (AID 2523);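 further: mean PE anti-B7-1 fluorescence of CD8+ cells relative to row control; 100% = QL9-loaded vesicles with DMSO vehicle in the same plate row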
measurement_parameters: 2C mouse CD8+ T cells, at 7 µM, stronger effect = lower value
Recorded vesicle binding response values for a group of molecules are listed next.

{"columns": ["molecule", "vesicle binding response (%)"],
 "data": [
  ["Cc1ccc(P(=O)(CSC(=N)N)c2ccc(C)cc2)cc1", 155],
  ["Cc1ccc(OCCSc2ncccn2)c(C)c1", 186],
  ["COC(=O)c1ccccc1OCCOCCOc1cccc2ccc(C)nc12", 145],
  ["Cc1cc(C(C)(C)C)c(O)c(C)c1CC1=NCCN1", 297],
  ["CC1(C)O[C@@H]2C[C@H]3[C@@H]4CCC5=CC(=O)C=C[C@]5(C)[C@@]4(F)[C@@H](O)C[C@]3(C)[C@]2(C(=O)CO)O1", 123],
  ["C=CCc1ccccc1OCC(O)CNC(C)C (stereo unspecified)", 209],
  ["COc1ccc(C(=O)Nc2ccccc2C(=O)NCCCn2ccnc2)cc1", 82.8],
  ["COC(=O)C1=C(C)NC(C)=C(C(=O)OC)C1c1ccccc1[N+](=O)[O-]", 186],
  ["COc1cc(C2C(C(=O)c3ccc(C)o3)=C(O)C(=O)N2Cc2cccnc2)ccc1O (stereo unspecified)", 171],
  ["Cc1nc2ccccc2c(=O)n1N", 160],
  ["COc1cccc(N2CC(O)=C(c3nc4ccccc4c(=O)[nH]3)C2=N)c1", 140]
]}

====

assay_name: RPL19A-GFP modulators, yeast TOR pathway, confirmation, cell-based, S. cerevisiae, flow cytometry, cherry picks, mother/daughter gates (AID 2270)
measurement_parameters: S. cerevisiae RPL19A-GFP strain, 3 h, measured here: daughter cell gate, at 10 µM, stronger effect = lower value, 100 = same GFP as DMSO wells
measured_metric: GFP response vs DMSO (%)

{"columns": ["compound", "measured_metric", "unit_of_measure", "experimental_result"],
 "data": [
  ["CCOC(=O)c1sc(NC(=O)c2ccc3ncsc3c2)nc1C", "GFP response vs DMSO", "%", 95],
  ["O=S(=O)(c1ccc(Oc2ccccc2)cc1)N1CCOCC1", "GFP response vs DMSO", "%", 98.4],
  ["COC(=O)c1ccc(/C=C/C(=O)c2ccc(OC)c(OC)c2)cc1", "GFP response vs DMSO", "%", 101],
  ["Cc1cccc(OCCN2CSC(=S)N(C)C2)c1", "GFP response vs DMSO", "%", 94.4],
  ["O=C(Nc1ccccc1C(=O)O)c1ccccc1", "GFP response vs DMSO", "%", 99.8],
  ["Cc1cc(C)nc(S/C=C/C(=O)c2ccccc2F)n1", "GFP response vs DMSO", "%", 102],
  ["CCCc1nn(C)c2c1C(c1cccnc1)C(C#N)=C(N)O2 (stereo unspecified)", "GFP response vs DMSO", "%", 106],
  ["COc1cc(CCN2C(=O)c3cccc4cccc(c34)C2=O)c(S(=O)(=O)NCCCO)cc1OC", "GFP response vs DMSO", "%", 98.5],
  ["C/C(=N\\NC(=O)Cc1ccc([N+](=O)[O-])cc1)c1cccnc1", "GFP response vs DMSO", "%", 99.3],
  ["Nc1ccc2nc(-c3ccc(-c4nc5ccc(N)cc5[nH]4)cc3)[nH]c2c1", "GFP response vs DMSO", "%", 100],
  ["CNC(=O)c1c(O)c2cccc3c2n(c1=O)CC3", "GFP response vs DMSO", "%", 99.1]
]}

====

Test system: anti-desmoglein-3 scFv antibody binding to human DSG3
assay_name: inhibitors of anti-DSG3 scFv binding to DSG3, pilot screen, biochemical, validation compound set, bead-based, flow cytometry (AID 588368);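 further: signal is the median channel fluorescence of bead-bound GFP antibody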
measurement_parameters: Protein G beads, DSG3-Fc, scFv-GFP binding, at 10 µM, stronger effect = lower value
Peptide text beside a SMILES is read from it. * marks the point of attachment. Boc = CC(C)(C)OC(=O)*
measured_metric: binding (% of control) (%)

{"columns": ["compound", "experimental_result"],
 "data": [
  ["COc1ccc(CCNC(=O)C(=O)Nc2ccc3c(c2)OCO3)cc1OC", 94.1],
  ["CN1CCCC(OC(=O)c2ccc3c(c2)OCCO3)C1 (stereo unspecified)", 96],
  ["Nc1ccc(N=Nc2ccccc2)c(N)n1", 103],
  ["Oc1ccc(/C=C/c2cc(O)cc(O)c2)cc1", 97.2],
  ["Nc1c2c(nc3ccccc13)CCCC2", 104],
  ["CN1C(=O)C(O)(CC(=O)c2ccccc2O)c2cc(Br)ccc21 (stereo unspecified)", 99],
  ["CC(C)(C)OC(=O)N1CCCC1C(=O)NC(Cc1ccccc1)C(=O)O (stereo not drawn) (Boc-Pro-Phe-OH; configuration not given here)", 101],
  ["O=C(CCCCC(=O)NC1CCCC1)NC1CCCC1", 102],
  ["O=C(Nc1ccccc1)c1ccccc1CCc1ccccc1", 95.3],
  ["O=S(=O)(NCCCCCNS(=O)(=O)c1ccccc1)c1ccccc1", 103],
  ["N/C(=N/OS(=O)(=O)c1ccc([N+](=O)[O-])cc1)c1ccncc1", 107]
]}

====

The following molecules are shown together with reported superoxide response (% of plate) values.
assay_name: superoxide lowering in aged yeast cells, pilot screen, validation compound set (AID 2706);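 further: yeast exposed to compound for one week at 30 degrees C before staining; 100% = mean of all compound wells on the same plate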
measurement_parameters: S. cerevisiae aging, superoxide DHE fluorescence; at 10 µM, stronger effect = lower value

{"columns": ["molecule", "superoxide response (% of plate) / %"],
 "data": [
  ["Clc1ccc2c(c1)C(N1CCNCC1)=Nc1ccccc1O2", 103],
  ["N/C(=N/OS(=O)(=O)c1ccc([N+](=O)[O-])cc1)c1ccncc1", 108],
  ["C=C(CC)C(=O)c1ccc(OCC(=O)O)c(Cl)c1Cl", 98.5],
  ["NC(=O)N1c2ccccc2C=Cc2ccccc21", 112],
  ["COCCCC/C(=N\\OCCN)c1ccc(C(F)(F)F)cc1", 102],
  ["CC(=O)N1N=C(c2cccs2)CC1c1ccc(C)o1 (centres undefined)", 117],
  ["Clc1ccccc1CN1CCc2sccc2C1", 87.2],
  ["C[C@H](NC(=O)Nc1ccccc1F)C(=O)O", 106],
  ["Cc1cnc(C(=O)NCCc2ccc(S(=O)(=O)NC(=O)NC3CCCCC3)cc2)cn1", 95.2],
  ["CC(C)(C)c1csc(N/N=C/c2cccnc2)n1", 96],
  ["CN=C1c2cc3cc(OC)ccc3n2CCN1C", 103],
  ["Cc1ccc(NCCC(=O)c2ccccc2)cc1Cl", 99.7],
  ["Cc1ccc(S(=O)(=O)Nc2ccc(S(=O)(=O)Nc3cc(C)nc(C)n3)cc2)cc1", 89.7],
  ["CC(=O)OCC1OC(n2ccc(=O)[nH]c2=O)C(O)C1O (centres undefined)", 97.6],
  ["CC12CCC(C(=O)Nc3ccccc3Br)(C/C1=N\\O)C2(C)C (centres undefined)", 92.2],
  ["COc1ccc(O)c(N)c1", 104],
  ["COc1ccc(N2C(=O)[C@@H]3Cc4ccccc4CN3C2=O)cc1", 89.7],
  ["O=C(CCCCCCCC(=O)c1ccccc1)c1ccccc1", 95.3],
  ["Cc1oc2c(CN3CCCC3)c(O)ccc2c(=O)c1-c1ccc(Cl)cc1", 81.5],
  ["COc1ccc(C(=O)Nc2ccccc2C(=O)NCCCn2ccnc2)cc1", 101],
  ["CC12CCC(C(=O)N3CCCCC3)([C@H](Br)C1=O)C2(C)C (some centres undefined)", 101],
  ["O=C(CCNNC(=O)c1ccncc1)NCc1ccccc1", 101],
  ["O=C1Nc2ccc3sc4ccccc4c3c2C1=O", 111],
  ["Cc1ccc2nc3c(cc(C(=O)NCC4CCCO4)c(=N)n3CCCOC(C)C)c(=O)n2c1 (centres undefined)", 82.4],
  ["CC(=O)Oc1ccc2occ(/C=N/c3cc(=O)[nH]c(=S)[nH]3)c(=O)c2c1", 90.5],
  ["O=C(Nc1cccc(Cl)c1)N1CCN2C(=O)c3ccccc3C12c1ccccc1 (centres undefined)", 92.6],
  ["O=C1CC(c2ccc(F)cc2)Cc2nc(NCC3CCCO3)ncc21 (centres undefined)", 99.1],
  ["CC(=O)O[C@H]1C(=O)[C@@]2(C)[C@H]([C@H](OC(=O)c3ccccc3)[C@]3(O)C[C@H](OC(=O)[C@H](O)C(NC(=O)c4ccccc4)c4ccccc4)C(C)=C1C3(C)C)[C@]1(OC(C)=O)CO[C@@H]1C[C@@H]2O (some centres undefined)", 99],
  ["CCOc1ccc(CC2c3cc(OCC)c(OCC)cc3CCN2C(=O)CN2CCN(C)CC2)cc1OCC (centres undefined)", 82.4],
  ["Cc1ccccc1OCCSc1nc2ncnc(N)c2[nH]1", 97.8],
  ["C=CCc1cc(Cl)ccc1OCCOCCN(C)C", 98.8],
  ["O=c1n(CCCN2CCN(c3cccc(Cl)c3)CC2)nc2ccccn12", 102],
  ["COc1ccc(C2NC(=O)c3ccccc3N2)cc1OC (centres undefined)", 108],
  ["CCCCC[C@H](O)/C=C/[C@@H]1[C@@H](C/C=C\\CCCC(=O)O)[C@@H](O)C[C@H]1O", 96.5],
  ["C[C@]12CCC(=O)C[C@@H]1CC[C@@H]1[C@@H]2CC[C@]2(C)C=CC[C@@H]12", 111],
  ["COc1cc2c3c(c1)C1(C(=O)N3C(C)(C)C=C2C)C(C#N)=C(N)Oc2cc(C)oc(=O)c21 (centres undefined)", 96.8],
  ["COc1ccc2nc(Nc3nc(CSc4ccc(C)cc4)cc(=O)[nH]3)nc(C)c2c1", 104],
  ["CN1CCCC(OC(=O)c2ccc3c(c2)OCCO3)C1 (centres undefined)", 100],
  ["CCCCC(=O)O[C@]1(C(=O)CO)CC[C@H]2[C@@H]3CCC4=CC(=O)CC[C@]4(C)[C@H]3[C@@H](O)C[C@@]21C", 83.1],
  ["COc1ccc(-c2coc3cc(OC(=O)N4CCOCC4)ccc3c2=O)cc1", 105],
  ["COc1ccc(C(=O)Nc2ccc(OC)c([N+](=O)[O-])c2)cc1Br", 92.1],
  ["CCc1cc2c3c(c(=O)oc2cc1O)CCCC3", 93.2],
  ["Cc1csc(CCc2nc(C)cs2)n1", 108],
  ["Cn1c2[n+](c3ccc(Cl)cc3c1=O)Cc1ccccc1-2", 97.2]
]}
